Tested on: Receptor-interacting serine/threonine-protein kinase 2 (Homo sapiens) (UniProt O43353)
Sequence (O43353 whole entry, looked up): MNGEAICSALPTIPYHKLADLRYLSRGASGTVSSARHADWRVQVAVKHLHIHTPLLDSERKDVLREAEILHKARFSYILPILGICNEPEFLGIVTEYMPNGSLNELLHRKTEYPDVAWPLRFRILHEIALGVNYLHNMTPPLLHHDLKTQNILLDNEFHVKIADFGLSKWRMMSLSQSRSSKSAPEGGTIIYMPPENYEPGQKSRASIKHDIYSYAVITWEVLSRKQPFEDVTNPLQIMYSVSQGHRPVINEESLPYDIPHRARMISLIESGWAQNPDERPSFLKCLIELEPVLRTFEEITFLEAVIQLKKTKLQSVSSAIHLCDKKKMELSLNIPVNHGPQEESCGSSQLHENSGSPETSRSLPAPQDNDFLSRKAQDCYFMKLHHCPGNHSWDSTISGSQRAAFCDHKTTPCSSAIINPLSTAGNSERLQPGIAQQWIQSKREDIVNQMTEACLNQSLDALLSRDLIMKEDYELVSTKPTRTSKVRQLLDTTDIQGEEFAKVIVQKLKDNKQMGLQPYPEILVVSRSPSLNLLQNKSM
Experiment notes: NOD2-RIPK2 binding disruptors, retest, confirmation, fluorescence, CHO cells, BLA complementation, triplicate (AID 624370);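 note: 0% = DMSO-only wells and the high end = clavulanate BLA-blocked wells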
Assay setup: CCF4 FRET, at 4.98 µM, stronger effect = higher value
The other results are listed elsewhere or left out.
Classify by measured inhibition: 1 if it is equal to or exceeds 40%, 0 if it is smaller.

Solved entries (count: 6):
CC[C@H]1CN2CCc3cc(OC)c(OC)cc3[C@@H]2C[C@@H]1C[C@H]1NCCc2cc(OC)c(OC)cc21: 0
O=C(CCN1CCc2ccccc2C(O)(c2ccccc2)C1)c1ccc2c(c1)OCCO2 (stereo not given): 0
CC1CC(C)CN(S(=O)(=O)c2cccc(C(=O)N3C(=O)c4cccc(N)c4C3=O)c2)C1 (stereo not given): 0
CCN(CC)CCCC(C)n1c2nc(=O)[nH]c(=O)c-2nc2cc(Cl)ccc21 (stereo not given): 0
O=C(Nc1ccccc1Cl)/C(Cl)=C(\Cl)S(=O)c1ccccc1 (stereo not given): 1
O=C(NC1=CC(=O)c2ccccc2C1=O)c1ccccc1: 1

Would you kindly look at the next entry?
Lookup: Given the entry Nc1c(C(=O)c2cccs2)sc2nsc(SCCN3CCCCC3)c12 , answer whether its inhibition meets or surpasses 40%.
Found: 0

---

Tested on: Steroidogenic factor 1 (Homo sapiens)
Experiment notes: SF1 (NR5A1) inverse agonists, counter-screen for LRH-1 inverse agonist project, cell-based, luminescence, high throughput (AID 651614);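 note: cells cotransfected with StAR promoter reporter and SF1 expression vector; 0% = vehicle on cells with receptor and 100% = vehicle on cells lacking receptor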
Assay setup: cell-based SF1 luciferase reporter, at 3.6 µM, stronger effect = higher value
Quick reference: inhibition of the listed items.
API: value field is a number in %; no unit string.

// solved cases for inhibition follow
Nc1c2ccccc2nc2ccccc12: 52.1
Cc1ccccc1CN1CC2=C(CCN(Cc3ccccc3)C2=O)N2CCN=C12: 88.7
CCCOc1ccc2oc(=O)c3c(c2c1)CCCN3C(=O)CN1CCN(c2ncccn2)CC1: 55.7
Cc1ccc(NC(=O)COC(=O)c2cc(=O)c3ccccc3o2)c(Br)c1: 51.1
CCOc1ccc(CCNC(=O)COC(=O)c2cccc(S(=O)(=O)N3CCCC3)c2)cc1OCC: 54.1

Attention now turns to another entry.
Lookup: May I ask what inhibition has been recorded for CC(=O)c1ccc(OC(C)C(=O)OCC(=O)NCCc2ccccc2)cc1 (stereo unspecified) ?
Found: 40.7

---

Tested on: Nuclear receptor subfamily 5 group A member 2 (Homo sapiens)
Experiment notes: LRH-1 (NR5A2) inverse agonists, retest, confirmation, cell-based, luminescence (AID 651613);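 note: HEK293T cells co-transfected with LRH-1 and StAR promoter luciferase reporter; 0% = vehicle wells and 100% = parental cells lacking receptor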
Assay setup: cell-based LRH-1 luciferase reporter, inverse agonism; at 3.6 µM
The source made the active and inactive calls. No stated cut-off is given here; in the data, active means inhibition above about 42%; inactive means the rest.
Bench note: report the call from YES for active, NO for inactive

Solved entries (count: 3):
C=CCNc1nc2c(c(=O)n(C)c(=O)n2C)n1CCCCCC: YES
COc1ccc(N2C(=O)C(Cl)=C(N3CCOCC3)C2=O)cc1: NO
CCN(CC)CC(C)(C)C(=O)/C=C/c1ccc(/C=C/C(=O)C(C)(C)CN(CC)CC)cc1: YES

Lookup: Can you look up the reported call for COc1ccc(CC(N)c2csc(Nc3ncccn3)n2)cc1 (stereo unspecified) for me?
Found: NO

Lookup: Now give it for O=C(N/N=C\c1ccc([N+](=O)[O-])s1)c1cncc(Br)c1 too.
Found: YES

Lookup: Now give it for CC(NC(=O)CCl)c1ccc(Cl)c(Cl)c1 (stereo unspecified) too.
Found: YES

---

Tested on: Nuclear receptor coactivator 2 (Homo sapiens) (UniProt Q15596)
Sequence (Q15596 whole entry, looked up): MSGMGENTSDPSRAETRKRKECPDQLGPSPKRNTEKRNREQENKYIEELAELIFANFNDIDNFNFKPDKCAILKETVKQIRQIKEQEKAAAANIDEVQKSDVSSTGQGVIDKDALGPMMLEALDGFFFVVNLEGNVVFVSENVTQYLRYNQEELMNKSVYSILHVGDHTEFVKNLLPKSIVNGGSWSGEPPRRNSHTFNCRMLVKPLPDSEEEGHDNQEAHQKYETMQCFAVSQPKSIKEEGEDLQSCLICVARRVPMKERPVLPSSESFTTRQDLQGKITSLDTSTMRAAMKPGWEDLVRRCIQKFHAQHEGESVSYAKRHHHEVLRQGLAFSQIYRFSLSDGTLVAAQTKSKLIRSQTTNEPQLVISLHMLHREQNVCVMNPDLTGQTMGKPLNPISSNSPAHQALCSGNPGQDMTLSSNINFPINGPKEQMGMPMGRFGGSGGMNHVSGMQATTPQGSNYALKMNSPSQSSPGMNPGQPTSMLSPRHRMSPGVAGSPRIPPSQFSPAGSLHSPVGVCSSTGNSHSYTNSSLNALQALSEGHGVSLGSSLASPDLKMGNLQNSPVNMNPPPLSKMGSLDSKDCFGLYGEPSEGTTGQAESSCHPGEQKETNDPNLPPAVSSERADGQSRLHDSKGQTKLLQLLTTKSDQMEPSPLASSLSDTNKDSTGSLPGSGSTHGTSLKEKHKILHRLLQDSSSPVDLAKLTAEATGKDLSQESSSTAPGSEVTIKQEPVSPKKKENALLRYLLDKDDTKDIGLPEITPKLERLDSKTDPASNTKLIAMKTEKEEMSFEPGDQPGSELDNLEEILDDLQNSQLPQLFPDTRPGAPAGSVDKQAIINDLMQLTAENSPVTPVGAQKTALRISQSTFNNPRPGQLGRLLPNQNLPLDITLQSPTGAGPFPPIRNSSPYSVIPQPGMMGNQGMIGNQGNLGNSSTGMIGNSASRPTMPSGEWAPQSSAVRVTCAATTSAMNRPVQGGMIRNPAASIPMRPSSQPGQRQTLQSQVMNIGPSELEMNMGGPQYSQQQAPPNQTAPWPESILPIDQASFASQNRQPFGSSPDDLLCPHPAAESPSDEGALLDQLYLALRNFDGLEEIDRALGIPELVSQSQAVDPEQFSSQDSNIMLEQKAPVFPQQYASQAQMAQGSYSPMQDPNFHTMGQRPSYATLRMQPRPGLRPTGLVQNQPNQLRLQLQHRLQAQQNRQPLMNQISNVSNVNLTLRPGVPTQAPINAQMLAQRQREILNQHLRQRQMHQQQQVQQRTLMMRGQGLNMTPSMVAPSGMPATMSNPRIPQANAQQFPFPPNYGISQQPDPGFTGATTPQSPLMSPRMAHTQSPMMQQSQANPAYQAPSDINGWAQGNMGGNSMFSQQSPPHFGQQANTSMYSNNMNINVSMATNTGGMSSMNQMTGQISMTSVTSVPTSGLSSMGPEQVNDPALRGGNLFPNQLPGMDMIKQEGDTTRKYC
Experiment notes: SRC2 coactivator transcriptional activity inhibitors, confirmation, cell-based, luminescence, HEK293, triplicate (AID 652008);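 note: 0% = DMSO-treated cells and 100% = Gossypol at 36 µM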
Assay setup: HEK293 GAL4-SRC2 luciferase reporter, at 8.9 µM
The source made the active and inactive calls.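 How the source made its calls: active means mean inhibition above 46.5%, the solvent-only control mean plus 3 SD; inactive means the rest.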
Bench note: report the call from yes (1) (active), no (0) (inactive)

Solved entries (count: 2):
CCCCCCCCCCCCCCCC[n+]1ccccc1: no (0)
CCCCN(c1ccccc1)c1ncnc(N)c1[N+](=O)[O-]: no (0)

Lookup: Can you look up the reported call for COC(=O)c1ccc2nc(Nc3nc4c(F)cc(F)cc4s3)sc2c1 for me?
Found: yes (1)

Lookup: Now give it for O=C(O)CCSc1nc2ccccc2s1 too.
Found: yes (1)

Lookup: Now give it for CCn1c(Cl)c(C=O)s/c1=N\S(=O)(=O)c1ccccc1 too.
Found: no (0)

Lookup: Now give it for O=C1C=CC(=O)C(CNc2ccc(C(=O)OCc3ccccc3)cc2)=C1 too.
Found: no (0)

Lookup: Now give it for CCn1c(Oc2ccccc2C)nc2c1c(=O)n(C)c(=O)n2C too.
Found: no (0)

Lookup: Now give it for Cc1ccc(-c2nnc(SCCC(=O)N3CCOCC3)o2)cc1 too.
Found: no (0)

Lookup: Now give it for CC1=C(C(=O)OCc2ccc3c(c2)OCO3)C(c2ccc(Cl)cc2)NC(=O)N1 (centres undefined) too.
Found: no (0)

Lookup: Now give it for Cc1[nH]nc2ncc(C(=O)c3ccccc3O)cc12 too.
Found: yes (1)

---

Tested on: transactivating tegument protein VP16 (Human herpesvirus 1)
Experiment notes: VP16 transactivation reporter inhibitors, counter-screen for SRC2 inhibitor project, cell-based, luminescence, single concentration (AID 652007)
Assay setup: cell-based VP16 transactivation luciferase reporter, at 8.9 µM, stronger effect = higher value
Quick reference: inhibition of the listed items.
API: value field is a number in %; no unit string.

// solved cases for inhibition follow
CCCC(=O)NC(c1ccccc1)c1ccc2cccnc2c1O (stereo unspecified): -0.88
CCOC(=O)c1cccc2c1-c1ccccc1/C2=N/O: -10.8
NCC(=O)Nc1ccc(Cl)cc1C(=O)c1ccc[nH]1: 21.2
Cc1ccc(/C=C2\SC(=S)N(CCCC(=O)NC3CCCC3)C2=O)cc1: 79.5
O=C(N/N=C/c1cc([N+](=O)[O-])ccc1O)NC12CC3CC(CC(C3)C1)C2: -0.05
CC(C)(CO)CNc1ccn2nccc2n1: -7.15
CCOc1ccc(NC(=O)c2ccccn2)cc1: -15.2
CCC1CCCCN1S(=O)(=O)c1ccc(NC(=O)c2nc(S(C)(=O)=O)ncc2Cl)cc1 (stereo unspecified): 96.7
CC(C)Oc1ccc(S(=O)(=O)N2CCCCC2)cc1NC(=O)C1CCCC1: 11.3
COc1ccc(/C=C2\CN(Cc3ccccc3)C/C(=C\c3ccc(OC)c(O)c3)C2=O)cc1O: 73.1

Lookup: May I ask what inhibition has been recorded for OCC1OC(n2ccc3c2ncn2ncnc32)C(O)C1O (stereo unspecified) ?
Found: 12.2

---

Experiment notes: compounds interfering with TAMRA-BSA probe, counter-screen for TCR-CD3 interaction inhibitor project, biochemical, fluorescence, TAMRA-labeled BSA (AID 652035);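 note: 0% = buffer low control and 100% = reference high control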
Assay setup: TAMRA-labeled BSA probe fluorescence counterscreen; at 9.4 µM; stronger effect = higher value
This is one part of the list.
Quick reference: inhibition of the listed items.
API: value field is a number in %; no unit string.

COCCNC(=O)Nc1ccc2nc(-c3ccco3)c(-c3ccco3)nc2c1: -14.8

Lookup: May I ask what inhibition has been recorded for Cc1nn(C)cc1N1C(=O)c2cccc3c(N)ccc(c23)C1=O ?
Found: 52.9

Lookup: Now give it for O=c1c2ccccc2c(-c2ccccc2)nn1-c1ccccn1 too.
Found: -1.19

Lookup: Now give it for COc1ccccc1N(CC(=O)N/N=C(\C)c1ccccc1O)S(=O)(=O)c1ccc(C)cc1 too.
Found: -17.6

Lookup: Now give it for Cc1ncc(CO)c(/C=N/NC(=O)c2cccc(S(=O)(=O)N3CCCC3)c2)c1O too.
Found: -12.6

---

Tested on: Nuclear receptor subfamily 5 group A member 2 (Homo sapiens) (UniProt O00482)
Sequence (O00482 whole entry, looked up): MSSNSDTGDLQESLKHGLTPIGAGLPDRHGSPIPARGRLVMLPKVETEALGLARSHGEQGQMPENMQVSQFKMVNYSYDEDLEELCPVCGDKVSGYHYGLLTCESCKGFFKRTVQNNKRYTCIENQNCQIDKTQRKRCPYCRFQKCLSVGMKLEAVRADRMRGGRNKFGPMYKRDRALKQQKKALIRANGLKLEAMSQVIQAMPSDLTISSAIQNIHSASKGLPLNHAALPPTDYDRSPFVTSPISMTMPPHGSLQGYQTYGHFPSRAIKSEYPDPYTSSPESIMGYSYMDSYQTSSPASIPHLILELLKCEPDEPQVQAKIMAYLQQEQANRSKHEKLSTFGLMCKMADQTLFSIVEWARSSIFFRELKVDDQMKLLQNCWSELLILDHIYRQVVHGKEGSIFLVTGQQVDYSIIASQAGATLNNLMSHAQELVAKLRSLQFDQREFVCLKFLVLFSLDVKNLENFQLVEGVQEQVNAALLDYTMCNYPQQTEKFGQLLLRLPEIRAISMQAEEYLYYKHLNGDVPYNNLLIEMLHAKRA
Experiment notes: LRH-1 (NR5A2) inverse agonists, retest, confirmation, cell-based, luminescence (AID 651613);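 note: HEK293T cells co-transfected with LRH-1 and StAR promoter luciferase reporter; 0% = vehicle wells and 100% = parental cells lacking receptor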
Assay setup: cell-based LRH-1 luciferase reporter, inverse agonism; at 3.6 µM
Calls of active or inactive are those of the source. Cut-off read from the data, not from the text of the source: active = inhibition above about 42%; inactive = the rest.
Bench note: report the call from active, inactive

CNc1nc2sc3c(c2c(=O)n1C)CC(C)(C)SC3: inactive

Lookup: Can you look up the reported call for O=C(O)c1ccccc1C(=O)Nc1ccc(Oc2cccc3ccccc23)cc1 for me?
Found: inactive

Lookup: Now give it for COc1cc(CCNc2ccc3nnc(-c4ccccc4)n3n2)cc(OC)c1OC too.
Found: inactive

Lookup: Now give it for CC(C)c1ccc(NC(=O)CSc2nc(=O)[nH]c3c2CCCC3)cc1 too.
Found: active

---

Test system: transactivating tegument protein VP16 (Human herpesvirus 1), Gal4-VP16 luciferase reporter
Experiment notes: VP16 transactivation inhibitors, counter-screen for SRC3 inhibitor project, cell-based, luminescence, high throughput (AID 588794)
Assay setup: mammalian cells, VP16-driven luciferase reporter luminescence; at 3.6 µM; stronger effect = higher value
Readout name: inhibition (%)
API: value field is a number in %; no unit string.

// solved cases for inhibition follow
COc1ccc(S(=O)(=O)N2CCCCCC2)cc1C(=O)N(C)CC(=O)Nc1cc(C)ccc1C: 10.6
CCOC(=O)c1ccccc1OC(=O)NNc1ccccc1: 46.1
COc1cc(C=NO)nc(-c2ccccn2)c1: 43.5
Cc1sc(NC(=O)c2ccco2)c(C(c2cccnc2)N2CCN(c3ccc(F)cc3)CC2)c1C (stereo not given): 31.9
N=c1c2c(n(Cc3ccc(Cl)cc3)c3c1CCC3)CCC2: 68.7
CC(C)CCOc1cccc(OCC(=O)Nc2ccncc2)c1: 35.9
Cc1cc(-c2nnc(SCC(=O)Nc3ccccc3C(F)(F)F)o2)c(C)n1-c1ccccc1: 11.2
CN=c1scc(-c2ccccc2F)n1/N=C/c1ccc[nH]1: 86.5

Lookup: May I ask what inhibition has been recorded for CCN1/C(=C/c2ccc3cc(C)ccc3[n+]2CC)Sc2ccccc21 ?
Found: 78.5

Lookup: Now give it for Clc1ccc(C2=Nn3c(nnc3-c3n[nH]c4c3CCC4)SC2)cc1 too.
Found: -31.7

Lookup: Now give it for COc1ccc2[nH]c(=O)c(CN(CCN3CCCC3)C(=O)Nc3ccccc3Cl)cc2c1 too.
Found: 20.4

Lookup: Now give it for Cc1cc(C(=O)COC(=O)c2ccccc2O)c(C)n1CC1CCCO1 (stereo not given) too.
Found: 85.1
